System: patients receiving SSRI or SNRI treatment for major depressive disorder
assay.details: Retrospective review of patients receiving SSRI or SNRI treatment for major depressive disorder: late-appearing anhedonic symptoms
Type: in vivo
measurement.conditions: individual patient; period for which the SSRI produced excellent remission of major depressive disorder
Reported SSRI duration before new symptoms is given for each of the following molecules.

# count of solved cases: 3
CNCCC(Oc1ccc(C(F)(F)F)cc1)c1ccccc1 (stereo not shown); 2 years
CN[C@H]1CC[C@@H](c2ccc(Cl)c(Cl)c2)c2ccccc21; 2 years
Fc1ccc([C@@H]2CCNC[C@H]2COc2ccc3c(c2)OCO3)cc1; 10 years

Next molecule, please.
What does the data say about its SSRI duration before new symptoms? Entry: CN(C)CCCC1(c2ccc(F)cc2)OCc2cc(C#N)ccc21 (stereo not shown) 6 months
